biological target: HLA-B*51:01; experiment: IEDB peptide-MHC binding, purified MHC/competitive/radioactivity; bounds were set here for any values at or beyond the usual limits of such assays; conditions: source organism: Human immunodeficiency virus 1
Metric Name: IC50
Field note: include the unit after the figure.

Data request: Item under review: FPVRPQVPL . Reported IC50?
Data returned: 0.679 µM

Data request: Item under review: FAVRPQVPL . Reported IC50?
Data returned: 0.591 µM

Data request: Item under review: FPVRPQVPI . Reported IC50?
Data returned: 0.0148 µM

* * *

biological target: HLA-B*53:01; assay: IEDB peptide-MHC binding, purified MHC/competitive/radioactivity; filed as Kd, often an IC50 or EC50 that approximates it; bounds were set here for any values at or beyond the usual limits of such assays; details: source organism: Homo sapiens
For each record, write down the corresponding Kd.
Report as a plain number; the unit µM is understood.

Data request: Item under review: LPSPACQLV . Reported Kd?
Data returned: 7.15

Data request: Item under review: TPAEVSIVV . Reported Kd?
Data returned: 15.5

Data request: Item under review: SPSCPLERF . Reported Kd?
Data returned: 3.44

* * *

molecular target: HLA-B*07:02; experiment: IEDB peptide-MHC binding, purified MHC/competitive/radioactivity; bounds were set here for any values at or beyond the usual limits of such assays; details: source organism: human papillomavirus 11
Metric Name: IC50
Field note: include the unit after the figure.

Data request: Item under review: SPISNVANA . Reported IC50?
Data returned: 655 nM

* * *

molecular target: HLA-B*54:01; experiment: IEDB peptide-MHC binding, purified MHC/competitive/radioactivity; filed as Kd, often an IC50 or EC50 that approximates it; bounds were set here for any values at or beyond the usual limits of such assays; details: source organism: human papillomavirus 18
For each record, write down the corresponding Kd.
Field note: include the unit after the figure.

Data request: Item under review: QPFILYAHI . Reported Kd?
Data returned: 2.94 µM

Data request: Item under review: SPLGERLEV . Reported Kd?
Data returned: 9.09 µM

* * *

target: HLA-B*54:01; experiment: IEDB peptide-MHC binding, purified MHC/competitive/radioactivity; filed as Kd, often an IC50 or EC50 that approximates it; bounds were set here for any values at or beyond the usual limits of such assays; conditions: source organism: human papillomavirus 11
pKd: −log10 of the molar value.
Metric Name: pKd

Data request: Notebook entry, HLA-B*54:01 assay: pKd of QPKKVKRRL = ?
Data returned: ≤ 4.60

* * *

molecular target: HLA-B*35:01; assay: IEDB peptide-MHC binding, purified MHC/competitive/radioactivity; bounds were set here for any values at or beyond the usual limits of such assays; details: source organism: Human T-cell lymphotrophic virus type 1 (Caribbean isolate)
Metric Name: pIC50
Lab note: report pIC50 as minus log10 of the concentration in molar units, number only.

Data request: Item under review: WPLLPHVIF . Reported pIC50?
Data returned: 6.74

* * *

molecular target: HLA-B*54:01; assay: IEDB peptide-MHC binding, purified MHC/competitive/radioactivity; bounds were set here for any values at or beyond the usual limits of such assays; settings: source organism: Human immunodeficiency virus type 1 (RF/HAT ISOLATE)
Metric Name: pIC50
Lab note: report pIC50 as minus log10 of the concentration in molar units, number only.

Data request: Notebook entry, HLA-B*54:01 assay: pIC50 of FPISPIETV = ?
Data returned: 8.01
